B1: TRIM39 (parent)
chain: YPCVLATEGFTSGRHYWEVEVGDK

Variants of: B1
Experiment: protein stability index of a GFP-peptide fusion (GPS, HEK-293T) (PSI 1-6); higher = more stable;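 also: lentivirally expressed fusions sorted by FACS into six bins by GFP to DsRed ratio, PSI derived from sequencing read proportions per bin multiplied by bin number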
Details: c terminus: a fixed tail appended
Reported Endpoint: protein stability index

Before answering, review these 3 worked examples.
{"Ordered Residues": "YPCVLATEGFTSGRHYWEVEVHDK [G22H]", "Result": 1.95}
{"Ordered Residues": "YPCVLATEGFTSGRHYWEVEVGVK [D23V]", "Result": 1.65}
{"Ordered Residues": "YPCVLATEGFTSGRHYAEVEVGDK [W17A]", "Result": 3.49}

Entry YPCVLATEGFTNGRHYWEVEVGDK [S12N] — recorded protein stability index = 1.95

Entry YPCVLATEGFNSGRHYWEVEVGDK [T11N] — recorded protein stability index = 2.67

Entry YPCVLAGEGFTSGRHYWEVEVGDK [T7G] — recorded protein stability index = 1.77

Entry YPCVLATEGFTVGRHYWEVEVGDK [S12V] — recorded protein stability index = 1.6

Entry YPCVLATEGFTSGRHYWEVEVGDH [K24H] — recorded protein stability index = 1.57
